System: Rattus norvegicus
assayComment: Antiinflammatory activity in rat assessed as inhibition of carrageenan-induced hind paw edema at 50 mg/Kg, po administered 30 mins before carrageenan challenge measured after 1 hr relative to control
Format: functional
Exercise: for every item that follows, state its recorded inhibition in vivo at 50 mg/kg.

Problem: Answer briefly: inhibition in vivo at 50 mg/kg recorded on Rattus norvegicus for `O=C(NCCc1c[nH]c2ccccc12)c1csc(Nc2ccccc2)n1`
Result: 77%

Problem: Recall the reported inhibition in vivo at 50 mg/kg of `O=C(NCCc1c[nH]c2ccccc12)c1csc(Nc2ccc(Br)cc2)n1` on Rattus norvegicus and write it down.
Result: 23%

Problem: Using Rattus norvegicus as the test system, report measured inhibition in vivo at 50 mg/kg of `Cc1ccc(Nc2nc(C(=O)NCCc3c[nH]c4ccccc34)cs2)cc1` .
Result: 52%

Problem: State the measured inhibition in vivo at 50 mg/kg (Rattus norvegicus) of CC(=O)c1nc(C(=O)NCCc2c[nH]c3ccccc23)cs1 [BACILLAMIDE A]
Result: 58%

Problem: Look up and report inhibition in vivo at 50 mg/kg, with Rattus norvegicus as system, for `O=C(NCCc1c[nH]c2ccccc12)c1csc(Cc2ccccc2)n1`
Result: 76%

Problem: Report inhibition in vivo at 50 mg/kg under test system Rattus norvegicus for `O=C(NCCc1c[nH]c2ccccc12)c1csc(Nc2ccc(Cl)cc2)n1` .
Result: 49%

Problem: Using Rattus norvegicus as the test system, report measured inhibition in vivo at 50 mg/kg of `COc1ccc2c(c1)c(CC(=O)O)c(C)n2C(=O)c1ccc(Cl)cc1` .
Result: 94%

Problem: Enter inhibition in vivo at 50 mg/kg (test system Rattus norvegicus) for `O=C(NCCc1c[nH]c2ccccc12)c1csc(-c2cccs2)n1`
Result: 82%

Problem: Quote Rattus norvegicus inhibition in vivo at 50 mg/kg for entry `O=C(NCCc1c[nH]c2ccccc12)c1csc(Nc2ccc([N+](=O)[O-])cc2)n1` .
Result: 66%

Problem: Provide inhibition in vivo at 50 mg/kg, recorded with Rattus norvegicus, of `Cc1nc(C(=O)NCCc2c[nH]c3ccccc23)cs1`
Result: 63%

Problem: // output inhibition in vivo at 50 mg/kg; input `O=C(NCCc1c[nH]c2ccccc12)c1csc(Nc2ccc(F)cc2)n1` ; system Rattus norvegicus
Result: 83%

Problem: Give inhibition in vivo at 50 mg/kg for `Nc1nc(C(=O)NCCc2c[nH]c3ccccc23)cs1` tested on Rattus norvegicus.
Result: 86%

Problem: For Rattus norvegicus, give inhibition in vivo at 50 mg/kg of the listed molecule: `O=C(NCCc1c[nH]c2ccccc12)c1csc(-c2ccco2)n1`
Result: 75%

Problem: Under Rattus norvegicus, report inhibition in vivo at 50 mg/kg for `O=C(NCCc1c[nH]c2ccccc12)c1csc(-c2ccc(Cl)cc2)n1`
Result: 68%

Problem: Quote Rattus norvegicus inhibition in vivo at 50 mg/kg for entry `O=C(NCCc1c[nH]c2ccccc12)c1csc(-c2ccccc2)n1` .
Result: 55%

Problem: Write down the reported inhibition in vivo at 50 mg/kg (system: Rattus norvegicus) of `Cc1ccc(-c2nc(C(=O)NCCc3c[nH]c4ccccc34)cs2)cc1`
Result: 81%

Sourced from ChEMBL document CHEMBL3872221
